Assay: ATG_NRF2_ARE_CIS: Attagene CIS-FACTORIAL HepG2 Assay for human Nuclear Factor Erythroid 2 Related Factor 2 (NFR2) response to Antioxidant Response Elements (ARE) (AID 2282992)
Details: HepG2 Attagene ARE/NRF2 reporter, transcription factor activity; actives raise or lower the signal
Procedure: ATG_CIS is a cell-based, multiplexed-readout assay that uses HepG2, a human liver cell line, with measurements taken at 24 hours after chemical dosing in a 24-well plate.ATG_NRF2_ARE_CIS is one of 52 assay component(s) measured or calculated from the ATG_CIS assay. […] This assay endpoint, ATG_NRF2_ARE_CIS, was analyzed with bidirectional fitting relative to DMSO as the negative control and baseline of activity. […]
The source made the active and inactive calls. The calls were made as follows: active = hit-call score of the fitted dose curve at least 0.9, where 1 is the maximum; inactive = score below 0.9.
Mark one answer only. Choices: 1.0 for active, 0.0 for inactive

# outcome recorded in this test, key = CNC(=O)Oc1ccccc1OC(C)C
0.0

Cool, now CC(C)N(C(=O)COc1nnc(C(F)(F)F)s1)c1ccc(F)cc1
1.0

Cool, now COC(=O)c1ccccc1S(=O)(=O)NC(=O)N(C)c1nc(C)nc(OC)n1
0.0

Cool, now CNC(=O)Oc1cccc(N=CN(C)C)c1
1.0

Cool, now O=C(O)COc1ccc(Cl)cc1Cl
0.0

Cool, now COP(=S)(OC)Oc1ccc(SC)c(C)c1
1.0

Cool, now N#CN
0.0

Cool, now CC[C@H](C)[C@H]1O[C@]2(C=C[C@@H]1C)C[C@@H]1C[C@@H](C/C=C(\C)[C@@H](O[C@H]3C[C@H](OC)[C@@H](O[C@H]4C[C@H](OC)[C@@H](O)[C@H](C)O4)[C@H](C)O3)[C@@H](C)/C=C/C=C3\CO[C@@H]4[C@H](O)C(C)=C[C@@H](C(=O)O1)[C@]34O)O2 (tested in a mixture with another compound)
0.0

Cool, now COc1cc(OC)nc(NC(=O)NS(=O)(=O)c2cc(NC=O)ccc2C(=O)N(C)C)n1
0.0

Cool, now COc1nn(CSP(=S)(OC)OC)c(=O)s1
1.0

----------
Read-out: E-selectin (Homo sapiens) (UniProt P16581)
Sequence (P16581 whole entry, looked up): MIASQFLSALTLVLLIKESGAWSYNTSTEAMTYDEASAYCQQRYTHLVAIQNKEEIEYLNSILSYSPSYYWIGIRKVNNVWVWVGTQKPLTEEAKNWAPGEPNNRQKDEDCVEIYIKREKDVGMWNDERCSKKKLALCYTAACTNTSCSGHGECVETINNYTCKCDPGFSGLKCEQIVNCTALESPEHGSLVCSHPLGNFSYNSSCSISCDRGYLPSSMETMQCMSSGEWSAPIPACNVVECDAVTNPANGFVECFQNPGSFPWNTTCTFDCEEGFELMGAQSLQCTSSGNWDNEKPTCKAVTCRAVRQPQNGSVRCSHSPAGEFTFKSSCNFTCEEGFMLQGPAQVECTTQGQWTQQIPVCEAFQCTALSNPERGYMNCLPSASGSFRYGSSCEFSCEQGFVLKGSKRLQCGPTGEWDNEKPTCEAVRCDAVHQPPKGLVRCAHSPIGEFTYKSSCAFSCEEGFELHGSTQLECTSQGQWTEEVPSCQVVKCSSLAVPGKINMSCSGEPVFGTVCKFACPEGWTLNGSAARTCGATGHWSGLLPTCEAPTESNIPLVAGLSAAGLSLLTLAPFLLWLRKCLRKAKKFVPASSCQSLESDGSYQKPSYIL
Assay: BSK_SAg_Eselectin: BioMAP Diversity Plus: SAg Assay for Eselectin Biomarker Activity (AID 2283091)
Conditions: primary human HUVEC with PBMC; actives raise or lower the signal
Procedure: BSK_SAg is a cell-based, multiplexed-readout assay that uses umbilical vein endothelium and peripheral blood mononuclear cells, a human vascular primary cell co-culture, with measurements taken at 24 hours after chemical dosing in a 96-well plate.BSK_SAg_Eselectin is an assay component measured in the BSK_SAg assay. It measures E-selectin antibody related to regulation of gene expression using ELISA technology.Data from the assay component BSK_SAg_Eselectin was analyzed into 1 assay endpoint. […]
The source made the active and inactive calls. Rule for the calls: active = hit-call score of the fitted dose curve at least 0.9, where 1 is the maximum; inactive = score below 0.9.
metric.name: AC50

Some compounds with known AC50 results, for comparison:
[
  {
    "compound": "Oc1ccc(Cl)cc1Cc1ccccc1",
    "AC50": "32.5 µM (active) [middle of 5 runs]"
  },
  {
    "compound": "O=C(O)COc1ccc(Cl)cc1Cl",
    "AC50": "inactive"
  },
  {
    "compound": "O=C(Nc1ccccc1)Nc1cnns1",
    "AC50": "inactive"
  },
  {
    "compound": "CNC(=O)CSP(=S)(OC)OC",
    "AC50": "inactive"
  },
  {
    "compound": "CNC(=O)Oc1ccccc1OC(C)C",
    "AC50": "inactive"
  }
]

For the compound shown here, Oc1cc(Cl)ccc1Oc1ccc(Cl)cc1Cl , give the reported AC50.
12.7 µM (active) [middle of 4 runs]

Cool, now COc1cc(OC)nc(NC(=O)NS(=O)(=O)c2cc(NC=O)ccc2C(=O)N(C)C)n1
inactive

Cool, now CC[C@H](C)[C@H]1O[C@]2(C=C[C@@H]1C)C[C@@H]1C[C@@H](C/C=C(\C)[C@@H](O[C@H]3C[C@H](OC)[C@@H](O[C@H]4C[C@H](OC)[C@@H](O)[C@H](C)O4)[C@H](C)O3)[C@@H](C)/C=C/C=C3\CO[C@@H]4[C@H](O)C(C)=C[C@@H](C(=O)O1)[C@]34O)O2 (tested in a mixture with another compound)
5.19 µM (active)

Cool, now [2H]C1([2H])[n+]2ccccc2-c2cccc[n+]2C1([2H])[2H]
inactive

----------
Read-out: Epidermal growth factor receptor (EGFR), EGFR (gene 1956)
Assay: BSK_hDFCGF_EGFR: BioMAP Diversity Plus: hDFCGF Assay for Epidermal growth factor receptor (EGFR) Biomarker Activity (AID 2283057)
Conditions: primary human foreskin fibroblasts; actives raise or lower the signal
Method: BSK_hDFCGF is a cell-based, multiplexed-readout assay that uses foreskin fibroblast, a human skin primary cell, with measurements taken at 24 hours after chemical dosing in a 96-well plate.BSK_hDFCGF_EGFR is an assay component measured in the BSK_hDFCGF assay. It measures EGFR antibody related to regulation of gene expression using ELISA technology.Data from the assay component BSK_hDFCGF_EGFR was analyzed into 1 assay endpoint. […]
Calls of active or inactive are those of the source. Rule for the calls: active = hit-call score of the fitted dose curve at least 0.9, where 1 is the maximum; inactive = score below 0.9.
metric.name: AC50

[
  {
    "compound": "O=C(Nc1ccccc1)Nc1cnns1",
    "AC50": "inactive"
  },
  {
    "compound": "ClC1C(Cl)C(Cl)C(Cl)C(Cl)C1Cl (stereo not given)",
    "AC50": "inactive"
  },
  {
    "compound": "Cc1cc(C)nc(NC(=O)NS(=O)(=O)c2ccccc2C(=O)OC2COC2)n1",
    "AC50": "inactive"
  },
  {
    "compound": "CC1(C)C(C=C(Cl)Cl)C1C(=O)OC(C#N)c1ccc(F)c(Oc2ccccc2)c1 (stereo not given)",
    "AC50": "3.84 µM (active)"
  },
  {
    "compound": "CC(C)OC(=O)Nc1cccc(Cl)c1",
    "AC50": "inactive"
  },
  {
    "compound": "O=C(O)COc1ccc(Cl)cc1Cl",
    "AC50": "inactive"
  },
  {
    "compound": "CCOc1nc(NC)nc(NC(=O)NS(=O)(=O)c2ccccc2C(=O)OC)n1",
    "AC50": "inactive"
  },
  {
    "compound": "CNC(=O)/C=C(\\C)OP(=O)(OC)OC",
    "AC50": "inactive"
  }
]

For the compound shown here, CCCN(CCOc1c(Cl)cc(Cl)cc1Cl)C(=O)n1ccnc1 , give the reported AC50.
inactive

Cool, now CNC(=O)Oc1cccc(N=CN(C)C)c1
inactive

Cool, now CCc1ccc(C(=O)NN(C(=O)c2cc(C)cc(C)c2)C(C)(C)C)cc1
inactive

Cool, now CN1CSC(=S)N(C)C1
inactive

Cool, now N#Cc1c(Cl)c(Cl)c(Cl)c(C#N)c1Cl
inactive

Cool, now Cc1[nH]c(=O)n(C(C)(C)C)c(=O)c1Cl
inactive

Cool, now [2H]C1([2H])[n+]2ccccc2-c2cccc[n+]2C1([2H])[2H]
inactive

----------
read-out: Human Leukocyte Antigen - DR isotype (HLADR), HLA-DRA (gene 3122); assay: BSK_3C_HLADR: BioMAP Diversity Plus: 3C Assay for Human Leukocyte Antigen - DR isotype (HLADR) Biomarker Activity (AID 2283019); conditions: primary human endothelial cells (HUVEC); actives raise or lower the signal
The source made the active and inactive calls. Rule for the calls: active = hit-call score of the fitted dose curve at least 0.9, where 1 is the maximum; inactive = score below 0.9.
Mark one answer only. Choices: active, inactive

Field: example entries. Status: answers known.
[
  {
    "molecule": "COc1nn(CSP(=S)(OC)OC)c(=O)s1",
    "assigned.class": "active"
  },
  {
    "molecule": "CNC(=O)/C=C(\\C)OP(=O)(OC)OC",
    "assigned.class": "inactive"
  },
  {
    "molecule": "COP(=O)(OC)OC=C(Cl)Cl",
    "assigned.class": "active"
  }
]

Turning now to a further molecule:
# outcome recorded in this test, key = CC1(c2ccc(Oc3ccccc3)cc2)OC(=O)N(Nc2ccccc2)C1=O (centres undefined)
active

----------
read-out: Interferon-gamma inducible Protein 10 (IP10), CXCL10 (gene 3627); test: BSK_hDFCGF_IP10: BioMAP Diversity Plus: hDFCGF Assay for Interferon-gamma inducible Protein 10 (IP10) Biomarker Activity (AID 2283053); conditions: primary human foreskin fibroblasts; actives raise or lower the signal
Activity calls are given as the source filed them. How the source made its calls: active means hit-call score of the fitted dose curve at least 0.9, where 1 is the maximum; inactive means score below 0.9.
Mark one answer only. Choices: active, inactive

Field: example entries. Status: answers known.
[
  {
    "compound": "O=[N+]([O-])c1c(Cl)c(Cl)c(Cl)c(Cl)c1Cl",
    "assigned.class": "active"
  },
  {
    "compound": "O=C(O)COc1ccc(Cl)cc1Cl",
    "assigned.class": "inactive"
  },
  {
    "compound": "CCC(C)(C)C(=O)OC1=C(c2ccc(Cl)cc2Cl)C(=O)OC12CCCCC2",
    "assigned.class": "active"
  },
  {
    "compound": "Clc1ccccc1-c1nnc(-c2ccccc2Cl)nn1",
    "assigned.class": "active"
  },
  {
    "compound": "CC(C)(C)C(O)/C(=C\\c1ccc(Cl)cc1Cl)n1cncn1 (configuration not stated)",
    "assigned.class": "active"
  },
  {
    "compound": "Oc1cc(Cl)ccc1Oc1ccc(Cl)cc1Cl",
    "assigned.class": "active"
  }
]

Turning now to a further compound:
# outcome recorded in this test, key = CNC(=O)CSP(=S)(OC)OC
inactive
